Data origin: PubChem BioAssay AID583

# TARGET OR TEST SYSTEM: Heat shock 70 kDa protein 1A (Homo sapiens)
# PROCEDURE TEXT: Hsp70 inhibitors, probe displacement, primary screen, biochemical, fluorescence polarization (AID 583);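 also: plate controls were vehicle for no effect and reference ligand for full effect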
# CONDITION INFO: mP, at 20 µM, active compounds read high
The whole screen tested about 140,000 compounds, of which about 80 (0.06%) were called active. The full list was thinned out, with actives kept by preference.

{"columns": ["MOLECULE", "displacement (%)"],
 "data": [
  ["CCOc1ccc(N2C(=O)/C(=C/c3cc(Cl)ccc3O)C(=O)NC2=S)cc1", 0.9],
  ["O=C1CN=C(c2cccs2)c2c(sc3c2CCCC3)N1", 0.2],
  ["CCc1nc2ccccc2c(=O)n1-c1ccc2ccccc2c1", 0.4],
  ["C=CCN1C(=O)/C(=C\\c2cccs2)C(=O)NC1=S", 2.1],
  ["CC(C)c1ccc(N2C(=O)NC(=O)/C(=C/c3ccco3)C2=O)cc1", -1.4],
  ["CCN1C(=O)/C(=C/c2ccoc2)C(=O)NC1=S", 73.6],
  ["c1cc(CN2CCN(C3C4CC5CC(C4)CC3C5)CC2)ccn1 (stereo not drawn)", 5.7],
  ["O=C1NC(=O)N(c2cccc(Br)c2)C(=O)/C1=C/c1ccco1", 98.6],
  ["Cc1c(C(=O)N2CCC3(CC2)OCCO3)sc2ncnc(N(C)c3ccccc3)c12", 0.4],
  ["C=CCN1C(=O)/C(=C\\c2cccn2-c2cccc([N+](=O)[O-])c2)C(=O)NC1=S", 60.8],
  ["O=S(=O)(c1ccccc1)N1CC1c1ccccc1 (stereo not drawn)", 0.1],
  ["Cn1cccc1/C=C1/C(=O)NC(=S)N(c2ccc(Cl)cc2)C1=O", 36.4],
  ["COc1ccccc1N1CCN(Cc2ccccc2F)CC1", -0.6]
]}
